Tested on: Fibroblast
assay-procedure: Multiplex assay against human fibroblast
Format: toxicity, cell-based
cond: 12 h, 1 µM, compound concentration 1 uM, replicate 2
Tag: True if measured Population Hoechst High Intensity Objects (%) is not below 4%, False if it is.

Recorded results for 2 molecules are shown here.
CSc1ccccc1N1CCN(CCCCCC(=O)NC2CCCc3ccccc32)CC1.Cl (stereo not given) :: False
Cc1ccccc1C(=O)Nc1ccc(C(=O)N2CCCC(N(C)C)c3ccccc32)cc1.Cl (stereo not given) :: False

// query Please indicate if the recorded Population Hoechst High Intensity Objects (%) for CN(C)CCCc1cc(C(=O)Nc2ccc(-c3ccncc3)cc2)ccc1O.Cl.Cl meets or exceeds 4%.
// result False

// query Please indicate if the recorded Population Hoechst High Intensity Objects (%) for CN1CCN(c2nc3cc(C(F)(F)F)ccc3n3cccc23)CC1.O=C(O)/C=C\C(=O)O.O=C(O)/C=C\C(=O)O meets or exceeds 4%.
// result True

// query Please indicate if the recorded Population Hoechst High Intensity Objects (%) for Oc1c(CN2CCN(c3ccccn3)CC2)cc(Cl)c2cccnc12 meets or exceeds 4%.
// result True
